target: FPRL1 (Homo sapiens); construct: expressed in transfected cells; host or cells: CHO-Gal6 (CHO cells with G alpha 16); assay: compound-induced calcium activity on FLIPR Tetra in CHO-Gal6 cells stably expressing FPRL1; assay type: cell-based; conditions: calcium, FLIPR Tetra, tested 0.61 to 10,000 nM, read-out: FPRL1 EC50
Sequence (P25090 whole entry, species assumed): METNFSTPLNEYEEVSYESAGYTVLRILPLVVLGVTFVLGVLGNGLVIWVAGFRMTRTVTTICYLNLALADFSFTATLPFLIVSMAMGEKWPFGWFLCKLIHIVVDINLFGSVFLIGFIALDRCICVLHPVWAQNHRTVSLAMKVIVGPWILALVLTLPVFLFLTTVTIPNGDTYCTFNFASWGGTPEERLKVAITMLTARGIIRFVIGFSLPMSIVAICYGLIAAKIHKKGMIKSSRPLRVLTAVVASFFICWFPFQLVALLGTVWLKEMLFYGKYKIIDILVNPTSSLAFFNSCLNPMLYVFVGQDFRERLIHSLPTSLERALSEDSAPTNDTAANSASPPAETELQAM
EXPERIMENTAL_ENDPOINT: EC50 (nM)

Some solved entries appear below for comparison.
CCc1ccc(NC(=O)[C@H]2[C@@H](C(N)=O)[C@H]3CC[C@@H]2C32CC2)cc1 (racemic) [Compound 68]; 38.1
O=C(O)[C@@H]1[C@H](C(=O)Nc2ccc(OC(F)(F)F)cc2)[C@@H]2CC[C@H]1C21CC1 (racemic); 123
O=C(O)C1C(C(=O)Nc2ccc(SC(F)(F)F)cc2)C2C=CC1C21CC1 (racemic); 709
O=C(O)[C@@H]1[C@H](C(=O)Nc2ccc3c(c2)oc2ccccc23)[C@@H]2CC[C@H]1C21CC1 (racemic); 2260

[I] CCNC(=O)[C@@H]1[C@H](C(=O)Nc2ccc(Br)cc2)[C@@H]2CC[C@H]1C21CC1 (racemic)
[II] NC(=O)c1ccc(NC(=O)C2C(C(=O)O)C3CCC2C32CC2)cc1 (racemic)
[III] NC(=O)C1C(C(=O)Nc2ccc(I)cc2)C2C=CC1C21CC1 (racemic) [Compound 69]
Task for the reader: rank each entry by its EC50, from the minimum upward. Write the labels, ordered according to the request.
III, I, II
